Tested on: K-562 leukemia
assay_comment: NCI tumour cell line growth inhibition, 48 h; in the data active = GI50 below about 0.43 µM; inactive = the rest
*1 amine or outer side, *2 acyl side, *3 side chain or, on linkers, in order; H or OH if unused. Where a SMILES comes first, the peptide text is derived from it. Bridges are numbered along the chain shown (N, C = ends). [ ]: non-standard residue; d: D form. The star is where a group is joined. Phe(3-F) = N[C@@H](Cc1cccc(F)c1)C(=O)O; Pro(4R-Me) = C[C@H]1CN[C@H](C(=O)O)C1; aThr = C[C@H](O)[C@H](N)C(=O)O; Pip = O=C(O)[C@@H]1CCCCN1; X8 = CCc1ccc(N*)c(F)c1; CO = O=C([*:1])[*:2]
Choose one outcome from this list and give only that: true (1) (active), false (0) (inactive)

Below, 3 molecules whose answers are already recorded.
CCc1ccc(NC(=O)N[C@@H](Cc2cccc(F)c2)C(=O)N[C@@H]2C(=O)N3CCC[C@H]3C(=O)N3CCCC[C@H]3C(=O)N[C@@H](C)C(=O)N3C[C@H](C)C[C@H]3C(=O)O[C@H]2C)c(F)c1 ({X8-CO}-[Phe(3-F)][aThr]P[Pip]A[Pro(4R-Me)]; ester 2-C) | true (1)
COc1cc(OC)c(S(N)(=O)=O)cc1C(=O)/C=C/c1ccc(C)cc1 | false (0)
O=C(NNc1nc2cc(F)ccc2n2c(CN3CCC(O)C3)ccc12)c1cnccn1 (centres undefined) | false (0)

**Query** # lookup: test call for "C/C(=N/NC(N)=S)c1ccc(Nc2nc(SCC(C)C)nc(-c3ccc(F)cc3)c2C#N)cc1"
**Result** false (0)

====

System: ACHN renal
assay_comment: NCI tumour cell line growth inhibition, 48 h; in the data active means GI50 below about 0.43 µM; inactive means the rest
*1 amine or outer side, *2 acyl side, *3 side chain or, on linkers, in order; H or OH if unused. Where a SMILES comes first, the peptide text is derived from it. Bridges are numbered along the chain shown (N, C = ends). [ ]: non-standard residue; d: D form. The star is where a group is joined. ξ: configuration not given here. Phe(3,5-F2) = N[C@@H](Cc1cc(F)cc(F)c1)C(=O)O; ξThr(3S) = C[C@H](O[*:3])C(N[*:1])C(=O)[*:2]; X25 = C[C@H]1OCCN([*:1])[C@@H]1C(=O)[*:2]; Pro(4R-Me) = C[C@H]1CN[C@H](C(=O)O)C1; X24 = O=S(=O)(F)Oc1ccc(N*)cc1; CO = O=C([*:1])[*:2]
Choose one outcome from this list and give only that: Yes = active, No = inactive

Below, 3 compounds whose answers are already recorded.
C/C(=N/NC(N)=S)c1ccc(Nc2nc(SCC(C)C)nc(-c3ccc(F)cc3)c2C#N)cc1 | Yes
COc1cc(OC)c(S(N)(=O)=O)cc1C(=O)/C=C/c1ccc(C)cc1 | No
C[C@@H]1C[C@H]2C(=O)O[C@@H](C)C(NC(=O)[C@H](Cc3cc(F)cc(F)c3)NC(=O)Nc3ccc(OS(=O)(=O)F)cc3)C(=O)N3CCC[C@H]3C(=O)N3CCO[C@H](C)[C@H]3C(=O)N[C@@H](CO)C(=O)N2C1 (stereo partly drawn) ({X24-CO}-[Phe(3,5-F2)][ξThr(3S)]P[X25]S[Pro(4R-Me)]; ester 2-C) | No

From here, focus on the item given below.
**Query** # lookup: test call for O=C(NNc1nc2cc(F)ccc2n2c(CN3CCC(O)C3)ccc12)c1cnccn1 (centres undefined)
**Result** Yes
